Molecular target: NRAS Q61K (Homo sapiens (Human), UniProt P01111+P62937, Q61K)
Sequence (P01111 whole entry Q61K): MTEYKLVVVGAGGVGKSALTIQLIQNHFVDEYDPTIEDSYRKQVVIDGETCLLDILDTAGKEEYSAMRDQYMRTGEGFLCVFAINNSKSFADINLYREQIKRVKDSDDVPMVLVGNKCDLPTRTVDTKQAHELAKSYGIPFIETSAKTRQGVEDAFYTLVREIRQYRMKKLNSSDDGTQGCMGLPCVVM
Sequence (P62937 whole entry): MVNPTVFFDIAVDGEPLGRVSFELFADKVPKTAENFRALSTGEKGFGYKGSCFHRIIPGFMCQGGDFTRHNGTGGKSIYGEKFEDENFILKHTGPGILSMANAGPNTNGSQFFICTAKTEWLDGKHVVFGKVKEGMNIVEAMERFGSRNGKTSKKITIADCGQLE
Experiment: Ras-Raf disruption/FRET/MOA assay (BRAF RBD, Cyclophilin A)
Type: biochemical
pIC50: −log10 of the molar value.
Please provide measured pIC50 for the entries that follow.

Record request: pIC50 value, item `CCn1c(-c2cccnc2[C@H](C)OC)c2c3cc(ccc31)-c1cc(O)cc(c1)C[C@H](NC(=O)[C@H](C(C)C)N(C)C(=O)C1(C(=O)O)CC1)C(=O)N1CCC[C@H](N1)C(=O)OCC(C)(C)C2`
5.00 to 6.00

Record request: pIC50 value, item `CCn1c(-c2cc(N3CCN(C)CC3)cnc2[C@H](C)OC)c2c3cc(ccc31)-c1csc(n1)C[C@H](NC(=O)[C@H](C(C)C)N(C)C(=O)[C@@H]1OCC[C@@H]1c1cccnc1)C(=O)N1CCC[C@H](N1)C(=O)OCC(C)(C)C2`
6.00 to 7.00

Record request: pIC50 value, item `CCn1c(-c2cccnc2[C@H](C)OC)c2c3cc(ccc31)-c1csc(n1)C[C@H](NC(=O)[C@H](C(C)C)N(C)C(=O)N1CC3(CCN(C)C3)C1)C(=O)N1CCC[C@H](N1)C(=O)OCC(C)(C)C2`
6.00 to 7.00

Record request: pIC50 value, item `CCn1c(-c2cccnc2[C@H](C)OC)c2c3cc(ccc31)-c1cccc(c1)C[C@H](NC(=O)[C@H](C(C)C)N(C)C(C)=O)C(=O)N1CCC[C@H](N1)C(=O)OCC(C)(C)C2`
5.00 to 6.00

Record request: pIC50 value, item `CCn1c(-c2cccnc2[C@H](C)OC)c2c3cc(ccc31)-c1csc(n1)C[C@H](NC(=O)[C@H](C(C)C)N(C)C(=O)N(C)C1(C)COC1)C(=O)N1CCC[C@H](N1)C(=O)OCC(C)(C)C2`
6.00 to 7.00

Record request: pIC50 value, item `CCn1c(-c2cccnc2[C@H](C)OC)c2c3cc(ccc31)-c1cc(O)cc(c1)C[C@H](NC(=O)[C@H](C(C)C)N(C)C(=O)[C@H]1C[C@H]1O)C(=O)N1CCC[C@H](N1)C(=O)OCC(C)(C)C2`
6.00 to 7.00

Record request: pIC50 value, item CCn1c(-c2cccnc2[C@H](C)OC)c2c3cc(ccc31)-c1cc(O)cc(c1)C[C@H](NC(=O)C1CCC3C1C3(F)F)C(=O)N1CCC[C@H](N1)C(=O)OCC(C)(C)C2 (stereo partly drawn)
5.00 to 6.00

Record request: pIC50 value, item `CCn1c(-c2cccnc2[C@H](C)OC)c2c3cc(ccc31)-c1csc(n1)C[C@H](NC(=O)[C@H](C(C)C)N(C)C(=O)N1CC[C@@]13CCCNC3)C(=O)N1CCC[C@H](N1)C(=O)OCC(C)(C)C2`
5.00 to 6.00

Record request: pIC50 value, item CCn1c(-c2cccnc2[C@H](C)OC)c2c3cc(ccc31)-c1cc(O)cc(c1)C[C@H](NC(=O)C(C)C1CCOCC1)C(=O)N1CCC[C@H](N1)C(=O)OCC(C)(C)C2 (stereo partly drawn)
6.00 to 7.00

The measured values listed here are drawn from patent US20250195521A1.
